Target: Adenosine receptor A3 (Homo sapiens) (UniProt P0DMS8)
Sequence (P0DMS8 whole entry): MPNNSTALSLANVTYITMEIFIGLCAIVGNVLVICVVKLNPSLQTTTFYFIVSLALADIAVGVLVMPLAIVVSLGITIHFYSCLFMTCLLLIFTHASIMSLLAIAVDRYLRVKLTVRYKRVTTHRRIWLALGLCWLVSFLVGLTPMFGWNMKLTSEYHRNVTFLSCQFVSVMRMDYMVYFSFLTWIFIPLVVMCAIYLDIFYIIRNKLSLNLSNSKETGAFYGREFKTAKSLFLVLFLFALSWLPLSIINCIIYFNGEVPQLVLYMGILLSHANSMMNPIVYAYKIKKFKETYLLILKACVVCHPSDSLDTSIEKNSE
Assay: Displacement of [125I]AB-MECA from human adenosine A3 receptor expressed in HEK293 cells at 1 uM
Format: cell-based
Metric: Activity (%)

Here are 5 molecules together with their reported answers.
>  <Compound Smiles>
O=C(Nc1nc(-c2ccccc2)cc(-c2ccccc2)n1)c1ccccc1

>  <Assayed System>
Adenosine receptor A3 (Homo sapiens) (UniProt P0DMS8)

>  <Activity [%]>
38

$$$$
>  <Compound Smiles>
O=C(Nc1nc(-c2ccccc2)cc(-c2ccccc2)n1)C1CCCC1

>  <Assayed System>
Adenosine receptor A3 (Homo sapiens) (UniProt P0DMS8)

>  <Activity [%]>
39

$$$$
>  <Compound Smiles>
CCCC(=O)Nc1nc(-c2ccccc2)cc(-c2ccccc2)n1

>  <Assayed System>
Adenosine receptor A3 (Homo sapiens) (UniProt P0DMS8)

>  <Activity [%]>
38

$$$$
>  <Compound Smiles>
COc1ccc(C(=O)Nc2nc(-c3ccccc3)cc(-c3ccccc3)n2)cc1

>  <Assayed System>
Adenosine receptor A3 (Homo sapiens) (UniProt P0DMS8)

>  <Activity [%]>
41

$$$$
>  <Compound Smiles>
CCCCCC(=O)Nc1nc(-c2ccccc2)cc(-c2ccccc2)n1

>  <Assayed System>
Adenosine receptor A3 (Homo sapiens) (UniProt P0DMS8)

>  <Activity [%]>
24

$$$$

(I) CC(C)(C)C(=O)Nc1nc(-c2ccccc2)cc(-c2ccccc2)n1
(II) CC(C)(C)C(=O)Nc1cc(-c2ccccc2)nc(-c2ccccc2)n1
(III) CCCCC(=O)Nc1nc(-c2ccccc2)cc(-c2ccccc2)n1
(IV) O=C(Nc1cc(-c2ccccc2)nc(-c2ccccc2)n1)c1ccc(Cl)cc1
Request: Which order do these items take when sorted by rising Activity? List them. Response format: the labels, sorted as the prompt asks.
Response: I, III, IV, II
(I: 4%, III: 23%, IV: 33%, II: 49%)

---

Target: Adenosine receptor A1 (Homo sapiens)
Sequence (P30542 whole entry): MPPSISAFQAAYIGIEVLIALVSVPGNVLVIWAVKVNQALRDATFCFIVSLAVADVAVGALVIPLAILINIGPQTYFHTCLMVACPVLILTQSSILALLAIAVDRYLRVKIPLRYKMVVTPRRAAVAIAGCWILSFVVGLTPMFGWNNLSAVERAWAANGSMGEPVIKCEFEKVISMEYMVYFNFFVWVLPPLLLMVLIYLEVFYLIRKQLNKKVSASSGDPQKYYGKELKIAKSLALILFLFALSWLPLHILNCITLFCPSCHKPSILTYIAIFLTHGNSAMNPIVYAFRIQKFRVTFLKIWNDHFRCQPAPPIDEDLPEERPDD
Test: Displacement of [3H]DPCPX from human adenosine A1 receptor expressed in CHO cells
Assay type: cell-based
Each entry below carries its reported Ki.

>  <Compound Smiles>
CC(C)CC(=O)Nc1nc(-c2ccccc2)cc(-c2ccccc2)n1

>  <Assayed System>
Adenosine receptor A1 (Homo sapiens)

>  <Ki>
25.1 nM (antagonist)

$$$$
>  <Compound Smiles>
O=C(Nc1nc(-c2ccccc2)cc(-c2ccccc2)n1)c1cccc(Cl)c1

>  <Assayed System>
Adenosine receptor A1 (Homo sapiens)

>  <Ki>
368 nM (antagonist)

$$$$
>  <Compound Smiles>
CCC(=O)Nc1nc(-c2ccccc2)cc(-c2ccccc2)n1

>  <Assayed System>
Adenosine receptor A1 (Homo sapiens)

>  <Ki>
46.4 nM (antagonist)

$$$$
>  <Compound Smiles>
O=C(Nc1nc(-c2ccccc2)cc(-c2ccccc2)n1)C1CCCC1

>  <Assayed System>
Adenosine receptor A1 (Homo sapiens)

>  <Ki>
11.4 nM (antagonist)

$$$$

Request: Give a short answer stating reported Ki for CCCCC(=O)Nc1nc(-c2ccccc2)cc(-c2ccccc2)n1 .
Response: 27.6 nM (antagonist)

Request: Give the reported Ki for this molecule. O=C(Nc1nc(-c2ccccc2)cc(-c2ccccc2)n1)C1CCC1
Response: 107 nM (antagonist)

Request: Assign Ki to the following record: CCCCCC(=O)Nc1cc(-c2ccccc2)nc(-c2ccccc2)n1
Response: 109 nM (antagonist)

Request: Tell us which Ki value is on record for O=C(Nc1nc(-c2ccccc2)cc(-c2ccccc2)n1)c1ccccc1
Response: 309 nM (antagonist)

Request: Given the molecule CC(C)C(=O)Nc1nc(-c2ccccc2)cc(-c2ccccc2)n1 , write its reported Ki.
Response: 8.87 nM (antagonist)

Request: Identify the reported Ki for the following entry. O=C(Nc1nc(-c2ccccc2)cc(-c2ccccc2)n1)C1CCCCC1
Response: 119 nM (antagonist)

Request: Give Ki for CCC(CC)C(=O)Nc1nc(-c2ccccc2)cc(-c2ccccc2)n1
Response: 27.1 nM (antagonist)

Request: Given CCCC(=O)Nc1nc(-c2ccccc2)cc(-c2ccccc2)n1 , respond with its Ki.
Response: 3.7 nM (antagonist)

Request: Read off the recorded Ki for O=C(Nc1nc(-c2ccccc2)cc(-c2ccccc2)n1)C1CC1
Response: 24.9 nM (antagonist)

Request: Give the reported Ki for this molecule. CC(C)(C)C(=O)Nc1nc(-c2ccccc2)cc(-c2ccccc2)n1
Response: 224 nM (antagonist)

Request: Item O=C(Nc1cc(-c2ccccc2)nc(-c2ccccc2)n1)C1CC1 : provide Ki
Response: 7.58 nM (antagonist)

Attribution: ChEMBL document CHEMBL1149279
